system: PABPC1 PABC; assay type: binding, human; conditions: DMS-BM library, bait PABPC1 PABC, prey ATXN2, peptide TLNPNAKEFNPRSFSQ; P = wild type, row aa = residue at this position
Classification field: 1.0 = DMS-derived PSSM value, position P11 at or over 0.04; 0.0 = DMS-derived PSSM value, position P11 under 0.04.

These recorded examples may help you get a feel for the data.
In plain terms: is recorded DMS-derived PSSM value, position P11 at least 0.04 for TLNPNAKEFNPRSFSQ P11F (TLNPNAKEFNFRSFSQ) ? 1.0

Let us now turn to TLNPNAKEFNPRSFSQ P11N (TLNPNAKEFNNRSFSQ) 1.0

Let us now turn to TLNPNAKEFNPRSFSQ P11Q (TLNPNAKEFNQRSFSQ) 0.0

Let us now turn to TLNPNAKEFNPRSFSQ P11T (TLNPNAKEFNTRSFSQ) 1.0

Let us now turn to TLNPNAKEFNPRSFSQ P11R (TLNPNAKEFNRRSFSQ) 0.0

Let us now turn to TLNPNAKEFNPRSFSQ P11D (TLNPNAKEFNDRSFSQ) 0.0

Let us now turn to `TLNPNAKEFNPRSFSQ` 1.0

Here is another sequence to look at.
In plain terms: is recorded DMS-derived PSSM value, position P11 at least 0.04 for TLNPNAKEFNPRSFSQ P11K (TLNPNAKEFNKRSFSQ) ? 0.0

----------
tested on: PABPC1 PABC; format: binding, human; details: DMS-BM library, bait PABPC1 PABC, prey ATXN2, peptide KSTLNPNAKEFNPRSF; S = wild type, row aa = residue at this position
Classification field: 1 = DMS-derived PSSM value, position S15 at or over 0.05; 0 = DMS-derived PSSM value, position S15 under 0.05.

These recorded examples may help you get a feel for the data.
In plain terms: is recorded DMS-derived PSSM value, position S15 at least 0.05 for KSTLNPNAKEFNPRSF S15V (KSTLNPNAKEFNPRVF) ? 1

Let us now turn to KSTLNPNAKEFNPRSF S15T (KSTLNPNAKEFNPRTF) 0

Let us now turn to `KSTLNPNAKEFNPRSF` 1

Let us now turn to KSTLNPNAKEFNPRSF S15F (KSTLNPNAKEFNPRFF) 0

Let us now turn to KSTLNPNAKEFNPRSF S15P (KSTLNPNAKEFNPRPF) 0

Let us now turn to KSTLNPNAKEFNPRSF S15L (KSTLNPNAKEFNPRLF) 1

Further cases:
In plain terms: is recorded DMS-derived PSSM value, position S15 at least 0.05 for KSTLNPNAKEFNPRSF S15A (KSTLNPNAKEFNPRAF) ? 0

Let us now turn to KSTLNPNAKEFNPRSF S15H (KSTLNPNAKEFNPRHF) 1

Let us now turn to KSTLNPNAKEFNPRSF S15G (KSTLNPNAKEFNPRGF) 0

----------
system: PABPC1 PABC; format: binding, human; conditions: DMS-BM library, bait PABPC1 PABC, prey ATXN2, peptide TLNPNAKEFNPRSFSQ; N = wild type, row aa = residue at this position
For each record, write down the corresponding DMS-derived PSSM value, position N10.
Numbers only.

I have this sequence here, TLNPNAKEFNPRSFSQ N10Q (TLNPNAKEFQPRSFSQ) , and I need its recorded DMS-derived PSSM value, position N10. 0.09458

Let us now turn to TLNPNAKEFNPRSFSQ N10W (TLNPNAKEFWPRSFSQ) 0.06015

Let us now turn to TLNPNAKEFNPRSFSQ N10M (TLNPNAKEFMPRSFSQ) 0.1

# batch: return DMS-derived PSSM value, position N10 for each of the 5 sequences below
1. TLNPNAKEFNPRSFSQ N10E (TLNPNAKEFEPRSFSQ)
2. TLNPNAKEFNPRSFSQ N10L (TLNPNAKEFLPRSFSQ)
3. TLNPNAKEFNPRSFSQ N10Y (TLNPNAKEFYPRSFSQ)
4. TLNPNAKEFNPRSFSQ N10G (TLNPNAKEFGPRSFSQ)
5. TLNPNAKEFNPRSFSQ N10P (TLNPNAKEFPPRSFSQ)

1. 0.00197
2. 0.1974
3. 0.09858
4. 0.01946
5. 0.06147
